# System: P. falciparum 3D7 growth, pLDH absorbance
# test.description: blood-stage malaria parasite growth potency – strain 3D7, dose response (AID 2305)
measured.metric: IC50 (nM)
Report as a plain number; the unit nM is understood.

Which value of IC50 has been reported for CCOC(=O)c1ccc(NC(=O)N[C@@H](Cc2ccc(O)cc2)C(=O)NC2CCN(Cc3ccc4c(c3)OCO4)CC2)cc1 in the records?
1060

I would be grateful if you could share the reported IC50 for CC(=O)Nc1ccc([N+](=O)[O-])c2c(Br)cccc12 .
640

Consider the compound Cc1ccc(NC(=O)c2ccc(CN3CCCN(CC4CCCCC4)CC3)cc2)cc1F and give its measured IC50.
290

// returns reported IC50 for input COc1cc(F)c2ncc(Cl)c(CCN3CCC(NCc4ccc5c(n4)NC(=O)CS5)CC3)c2c1
480

Item CCN(CCNC(=O)Cn1c(C)cc2cc([N+](=O)[O-])ccc21)c1cccc(C)c1 has what recorded IC50?
1010
